- System: Ehrlich
- measurement-protocol: Cytotoxicity against mouse Ehrlich carcinoma cells assessed as reduction in cell viability by MTT assay
- Type: cell-based
value-kind: Activity

smiles_representation=C=C(CC[C@@H](C)[C@H]1[C@H](O[C@@H]2O[C@@H]([C@H](O)COC)[C@H](O)[C@H]2O)CC2=C3[C@@H](O[C@@H]4O[C@@H]([C@H](O)CO)[C@H](OC)[C@H]4O)[C@@H](O)[C@H]4C[C@H](O)CC[C@]4(C)[C@H]3CC[C@@]21C)C(C)C value_kind=Activity result=Non-Toxic
smiles_representation=CO[C@@H]1[C@@H](O)[C@H](O[C@@H]2CC3=C4[C@@H](O)[C@@H](O)[C@H]5C[C@H](O)CC[C@]5(C)[C@H]4CC[C@]3(C)[C@H]2[C@H](C)/C=C/C(C)C)O[C@H](CO)[C@H]1O value_kind=Activity result=Non-Toxic
